Tested on: CEM cells HIV-1 protection, formazan growth assay
assay.summary: NCI AIDS Antiviral Assay
test.context: measured here: growth of uninfected CEM cells
measured.endpoint: IC50

[
  {
    "compound": "CCOC(=O)/C=C/c1ccc(OC)cc1",
    "measured.endpoint": "IC50",
    "result": "> 34.7 µM"
  }
]

Shifting focus to the compound that follows.
Sample `Cc1c(C)c2c(c(N)c1C#N)C(=O)N(Cc1ccc(S(N)(=O)=O)cc1)C2=O` ; IC50 observed: > 200 µM

###

System: CEM cells HIV-1 protection, formazan growth assay
assay.summary: NCI AIDS Antiviral Assay
test.context: measured here: growth of uninfected CEM cells
IC50 values, listed per item

The following molecules have reported results that may help.
[
  {
    "molecule": "O=C(O)CCCCCCCc1cc(O)ccc1[N+](=O)[O-]",
    "result": "> 200 µM"
  },
  {
    "molecule": "Nc1ncnc2c1nc1n2C2OC(CO)C(O)C2O1 (stereo not drawn)",
    "result": "> 339 µM"
  },
  {
    "molecule": "C=C[C@H]1[C@@H]2CCC3=CC(=O)CC[C@@H]3C2CC[C@]1(C)C(=O)O (stereo partly drawn)",
    "result": "> 200 µM"
  },
  {
    "molecule": "COC(=O)C1(C(=O)OC)N=C(C)OC1c1ccccn1 (stereo not drawn)",
    "result": "> 200 µM"
  },
  {
    "molecule": "CCC(=O)N/S(=N/S(=O)(=O)c1ccccc1)C(Cl)(Cl)Cl (stereo not drawn)",
    "result": "> 200 µM"
  }
]

Sample `CCOP(=Nc1ccc(N(C)C)cc1)(OCC)OCC` ; IC50 observed: > 200 µM

Sample `O=C(c1ccc(Cl)cc1)N(C(=S)N1CCN(c2ccccn2)CC1)c1ccccc1` ; IC50 observed: > 30.9 µM

Sample O=C1CC(C2(O)C(=O)Nc3ccc([N+](=O)[O-])cc32)c2ccccc21 (stereo not drawn) ; IC50 observed: > 55 µM

Cited source for all entries: PubChem BioAssay AID179
